System: M. tuberculosis H37Rv growth inhibition
Experiment: M. tuberculosis H37Rv growth inhibitors, H37Rv strain (AID 1626)
experimentalEndpoint: IC50

// worked examples, IC50 included
compound=Cc1ccc2c(c1)c1ncnc(N3CCc4ccccc4C3)c1n2C assayvalue="6.39 µM"
compound=O=[N+]([O-])c1cc(C=Nc2ccc3ccccc3c2)ccc1Br assayvalue="5.95 µM"

Query: If you can, please state the reported IC50 value of CCOC(=O)CSc1ncnc2c1cnn2-c1ccc(C)cc1C .
Result: 1.44 µM

Query: If you can, please state the reported IC50 value of CCOC(=O)c1nc2sc3c(c2c(=O)[nH]1)CCC(C)C3 (stereo unspecified) .
Result: 10.4 µM

Query: If you can, please state the reported IC50 value of CCOC(=O)c1cccc(NC(=O)CCc2nc(-c3ccc(C)cc3)no2)c1 .
Result: 30.1 µM

Query: If you can, please state the reported IC50 value of NC1CCN(c2c(F)cc3c(=O)c(C(=O)O)cn(C4CC4)c3c2Cl)C1 (stereo unspecified) .
Result: < 0.391 µM

Query: If you can, please state the reported IC50 value of c1ccc(CNc2nc(CN3CCOCC3)nc3scc(-c4ccccc4)c23)cc1 .
Result: 13 µM

Query: If you can, please state the reported IC50 value of Cc1nn(-c2ccccc2)nc1C(=O)c1c(C)[nH]n(-c2ccccc2)c1=O .
Result: 8.35 µM

Query: If you can, please state the reported IC50 value of O=[N+]([O-])c1cc(O)c2ncccc2c1 .
Result: 2.71 µM

Query: If you can, please state the reported IC50 value of Cc1cccc(-c2nsc(SCC(=O)NCC3CCCO3)n2)c1 (stereo unspecified) .
Result: 1.19 µM

Query: If you can, please state the reported IC50 value of Clc1nc(-c2ccccn2)nc2scc(-c3ccccc3)c12 .
Result: 9.23 µM

====

System: M. tuberculosis H37Rv growth inhibition
Experiment: M. tuberculosis H37Rv growth inhibitors, H37Rv strain (AID 1626)
experimentalEndpoint: IC50

Query: If you can, please state the reported IC50 value of Fc1ccc(Sc2nc(-c3ccccc3)nnc2C(F)(F)F)cc1 .
Result: 90.4 µM

Query: If you can, please state the reported IC50 value of Cn1c2c(c(=O)n(C)c1=O)C(C(F)(F)F)(C(F)(F)F)N=C(c1ccc(Cl)cc1)N2 .
Result: 4.92 µM

Query: If you can, please state the reported IC50 value of O=C(c1cc2nc(-c3ccc(F)cc3)cc(C(F)(F)F)n2n1)N1CCCCC1c1cccnc1 (stereo not given) .
Result: 9.18 µM

Query: If you can, please state the reported IC50 value of Cc1nc(N2CCN(c3ccccn3)CC2)c2c(C)c(C(=O)Nc3ccccc3F)sc2n1 .
Result: 8.96 µM

Query: If you can, please state the reported IC50 value of O=C(OCC(=O)N1CCc2ccccc21)c1ccc(Cl)nc1 .
Result: 14.2 µM

====

Test system: M. tuberculosis H37Rv growth inhibition
Experiment: M. tuberculosis H37Rv growth inhibitors, H37Rv strain (AID 1626)
Conditions: measured here: IC90 against H37Rv
experimentalEndpoint: IC90 (µM)
Enter your answer as a number in µM; do not include the unit.

Query: If you can, please state the reported IC90 value of Cc1nc(-c2ccccn2)nc(SCC(=O)c2ccc(F)cc2)c1Cl .
Result: 13.8

Query: If you can, please state the reported IC90 value of O=C(c1ccc(COc2ccc(Cl)cc2)o1)N1CCN(Cc2ccc3c(c2)OCO3)CC1 .
Result: 21.9

Query: If you can, please state the reported IC90 value of O=C(c1ccc(Cl)cc1)C1CCCN(Cc2cnn(-c3ccccc3)c2)C1 (stereo unspecified) .
Result: 11.5
